# protocol-text: Solubility in pharmaceutically acceptable excipients
# Assay type: physicochemical
# experimental-context: oil or lipid; Labrasol ®/Capryol ® 90 60/40
# Description: Thus, the (S)-enantiomer can be formulated in a fewer number of dosage units than the racemate. This property facilitates dosing patients at a higher level if needed to achieve efficacy.
property-measured: solubility (mg/mL)
Give bare numbers, in mg/mL.

IN: Look up solubility for this compound: `O=C1N(Cc2ccc(C(F)(F)F)o2)c2ccccc2[C@]12COc1cc3c(cc12)OCO3`
OUT: 191

---

# protocol-text: Solubility in pharmaceutically acceptable excipients
# Type: physicochemical
# experimental-context: organic solvent or mixture; Labrasol ®/PEG 400 60/40
# From the text: Thus, the (S)-enantiomer can be formulated in a fewer number of dosage units than the racemate. This property facilitates dosing patients at a higher level if needed to achieve efficacy.
property-measured: solubility (mg/mL)
Answers are plain numbers, in mg/mL.

IN: // solubility lookup, key: `O=C1N(Cc2ccc(C(F)(F)F)o2)c2ccccc2[C@]12COc1cc3c(cc12)OCO3`
OUT: 182

---

The compounds below have reported IC50 for hNav1.7 (Homo sapiens, UniProt Q15858).
One number for each entry, in nM.

Worked set:
INSERT INTO results (compound, units_of_measure, recorded_measurement) VALUES
  ('O=C1N(Cc2ccc(C(F)(F)F)o2)c2ccccc2[C@]12COc1cc3c(cc12)OCO3', 'nM', 3),
  ('O=C1N(Cc2ccc(C(F)(F)F)o2)c2ccccc2[C@@]12COc1cc3c(cc12)OCO3', 'nM', 4200);

IN: // lookup IC50 for O=C1N(Cc2ccc(C(F)(F)F)o2)c2ccccc2C12COc1cc3c(cc12)OCO3 (racemic)
OUT: 7

---

# protocol-text: Solubility in pharmaceutically acceptable excipients
# Type: physicochemical
# experimental-context: organic solvent or mixture; Tween ® 80
property-measured: solubility

IN: Quick one: solubility for O=C1N(Cc2ccc(C(F)(F)F)o2)c2ccccc2[C@]12COc1cc3c(cc12)OCO3 [(I-S)] ?
OUT: > 123 mg/mL

---

# protocol-text: Phase 1 clinical trial of topical ointment: systemic pharmacokinetics
# Assay type: in vivo, human
# experimental-context: human, plasma, Day 22, read-out: highest level observed in plasma in one subject during the dosing period
property-measured: concentration at 22 day (ng/mL)
Give bare numbers, in ng/mL.

IN: Give its concentration at 22 day value. Item: `O=C1N(Cc2ccc(C(F)(F)F)o2)c2ccccc2[C@]12COc1cc3c(cc12)OCO3`
OUT: 0.994

---

# protocol-text: Solubility in pharmaceutically acceptable excipients
# Type: physicochemical
# experimental-context: Ethanol, organic solvent or mixture
property-measured: solubility (mg/mL)
Give bare numbers, in mg/mL.

IN: Which solubility value is on record for O=C1N(Cc2ccc(C(F)(F)F)o2)c2ccccc2[C@]12COc1cc3c(cc12)OCO3 [(I-S)] ?
OUT: 36.4

---

# test-system: hNav1.7 (Homo sapiens)
# Sequence (Q15858 whole entry): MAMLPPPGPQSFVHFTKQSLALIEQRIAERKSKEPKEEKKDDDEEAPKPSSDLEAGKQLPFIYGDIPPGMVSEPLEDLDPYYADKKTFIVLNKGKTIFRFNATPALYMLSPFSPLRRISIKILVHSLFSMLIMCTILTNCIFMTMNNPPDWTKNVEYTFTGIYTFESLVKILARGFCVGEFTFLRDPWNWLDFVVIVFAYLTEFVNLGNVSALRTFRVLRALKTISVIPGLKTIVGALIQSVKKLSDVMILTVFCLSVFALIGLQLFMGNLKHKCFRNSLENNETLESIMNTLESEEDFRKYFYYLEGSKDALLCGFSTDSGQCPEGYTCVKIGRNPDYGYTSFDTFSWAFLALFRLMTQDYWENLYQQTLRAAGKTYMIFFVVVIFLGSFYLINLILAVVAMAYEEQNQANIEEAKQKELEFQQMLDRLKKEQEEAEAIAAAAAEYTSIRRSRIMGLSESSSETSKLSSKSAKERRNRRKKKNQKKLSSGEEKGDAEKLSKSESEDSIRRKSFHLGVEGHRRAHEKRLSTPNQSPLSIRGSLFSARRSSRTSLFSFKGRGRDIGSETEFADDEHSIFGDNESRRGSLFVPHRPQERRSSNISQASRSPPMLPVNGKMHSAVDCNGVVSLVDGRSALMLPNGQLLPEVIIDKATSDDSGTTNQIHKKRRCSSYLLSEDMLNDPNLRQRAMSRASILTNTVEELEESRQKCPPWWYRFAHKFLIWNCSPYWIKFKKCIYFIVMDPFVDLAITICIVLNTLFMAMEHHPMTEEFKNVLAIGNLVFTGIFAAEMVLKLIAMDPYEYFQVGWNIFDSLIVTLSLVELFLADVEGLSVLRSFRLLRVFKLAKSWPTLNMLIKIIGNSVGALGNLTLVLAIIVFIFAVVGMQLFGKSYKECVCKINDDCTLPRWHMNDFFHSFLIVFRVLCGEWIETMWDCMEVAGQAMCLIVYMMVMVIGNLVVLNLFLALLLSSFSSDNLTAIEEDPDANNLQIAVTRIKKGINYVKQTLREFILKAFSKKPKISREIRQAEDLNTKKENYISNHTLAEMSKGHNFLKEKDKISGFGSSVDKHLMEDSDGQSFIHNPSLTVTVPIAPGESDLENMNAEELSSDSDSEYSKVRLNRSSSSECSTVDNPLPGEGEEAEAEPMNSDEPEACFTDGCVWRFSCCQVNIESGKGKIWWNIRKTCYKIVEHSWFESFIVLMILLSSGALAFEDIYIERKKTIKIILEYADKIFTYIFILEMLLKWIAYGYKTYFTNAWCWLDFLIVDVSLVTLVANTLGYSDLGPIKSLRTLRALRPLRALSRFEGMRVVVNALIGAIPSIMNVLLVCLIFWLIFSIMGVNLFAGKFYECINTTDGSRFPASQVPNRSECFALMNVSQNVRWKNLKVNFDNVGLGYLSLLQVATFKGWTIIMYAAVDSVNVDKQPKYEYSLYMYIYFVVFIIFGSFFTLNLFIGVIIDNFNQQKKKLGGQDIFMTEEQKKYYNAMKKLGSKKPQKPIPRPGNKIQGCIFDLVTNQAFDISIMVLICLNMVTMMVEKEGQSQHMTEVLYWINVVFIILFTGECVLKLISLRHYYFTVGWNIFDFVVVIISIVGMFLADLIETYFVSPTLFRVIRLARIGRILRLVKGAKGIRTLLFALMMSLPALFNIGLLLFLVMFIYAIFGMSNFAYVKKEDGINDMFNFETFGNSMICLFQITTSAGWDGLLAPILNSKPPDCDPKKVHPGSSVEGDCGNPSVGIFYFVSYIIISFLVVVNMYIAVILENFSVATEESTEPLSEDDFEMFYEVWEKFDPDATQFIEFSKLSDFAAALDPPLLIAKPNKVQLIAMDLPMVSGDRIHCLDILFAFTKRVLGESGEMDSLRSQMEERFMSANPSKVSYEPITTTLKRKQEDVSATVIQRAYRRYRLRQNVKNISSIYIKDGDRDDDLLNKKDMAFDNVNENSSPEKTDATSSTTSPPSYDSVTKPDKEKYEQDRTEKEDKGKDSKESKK
# protocol-text: Electrophysiological assay, whole cell voltage clamp
# experimental-context: affinity for the inactivated state of hNav1.7
property-measured: Ki (nM)
One number for each entry, in nM.

Take each entry in turn and give its Ki.
1. O=C1N(Cc2ccc(C(F)(F)F)o2)c2ccccc2[C@]12COc1cc3c(cc12)OCO3
2. O=C1N(Cc2ccc(C(F)(F)F)o2)c2ccccc2C12COc1cc3c(cc12)OCO3 (racemic)
3. O=C1N(Cc2ccc(C(F)(F)F)o2)c2ccccc2[C@@]12COc1cc3c(cc12)OCO3

OUT:
1: 161; 2: 142; 3: 869
